System: SK-MEL-5 melanoma
Protocol text: NCI-60 one-dose screen, 48 h
Applied conditions: 10 µM unless noted
The panel holds about 83,000 compounds, 20% with a hit somewhere; the sample as a whole holds those more often. Active and inactive are the calls of the source. Rule for the calls: active = growth percent below 10; inactive = the rest.
Write down one outcome, taken from active, inactive

query: Query: recorded result category for COc1ccc(CCC2NCCc3c(Br)c4c(c(OC)c32)OCO4)cc1 (stereo not drawn) in this test
result: active

query: Query: recorded result category for O=C(Cn1c(-c2ccccc2)nc2ccccc21)N=Nc1c(O)[nH]c2ccc(Cl)cc12 in this test
result: inactive

query: Query: recorded result category for CN(C)c1nc(NCCNS(=O)(=O)c2ccc(C3=Nc4c(N)nc(N)nc4NC(c4ccc(Cl)cc4)C3)cc2)nc(N2CCOCC2)n1 (stereo not drawn) in this test
result: inactive
